These measurements were taken from paper PMC10387993.

system: Hep3B; experiment: cells; format: cell-based; conditions: Homo sapiens, MTT, read-out: IC50
READOUT_TYPE: IC50 (µg/mL)

smiles_notation=Cc1cccc(-c2cc(-c3cccnc3)nc(N[C@@H]3O[C@H](CO)[C@@H](O)[C@H](O)[C@H]3O)n2)c1 readout_type=IC50 measured_value=20.1

1. Cc1ccc(-c2cc(-c3ccccn3)nc(N[C@@H]3O[C@H](CO)[C@@H](O)[C@H](O)[C@H]3O)n2)cc1
2. Cc1cccc(-c2cc(-c3ccccn3)nc(N[C@@H]3O[C@H](CO)[C@@H](O)[C@H](O)[C@H]3O)n2)c1
Query: Lab note: record which item had the higher IC50, 1 or 2 . Which one? Tell me its label.
Response: 1
(1: 183 µg/mL, 2: 65.5 µg/mL)

###

assay: LDH cytotoxic activity assay, HT29; format: cell-based; conditions: human, HT29 cells, HT29, 25 μg/mL
READOUT_TYPE: cytotoxicity at 24 h, 25 μg/mL (%)
Report as a plain number; the unit % is understood.

smiles_notation=Cc1ccccc1-c1cc(-c2cccnc2)nc(N[C@@H]2O[C@H](CO)[C@@H](O)[C@H](O)[C@H]2O)n1 measured_value=27.7

So, `Cc1ccccc1-c1cc(-c2ccncc2)nc(N[C@@H]2O[C@H](CO)[C@@H](O)[C@H](O)[C@H]2O)n1` ? Its cytotoxicity at 24 h, 25 μg/mL was 33.1

So, `CC(=O)OC[C@H]1O[C@@H](Nc2nc(-c3ccccn3)cc(-c3ccccc3C)n2)[C@H](OC(C)=O)[C@@H](OC(C)=O)[C@@H]1OC(C)=O` ? Its cytotoxicity at 24 h, 25 μg/mL was 29.4

So, `Cc1ccc(-c2cc(-c3cccnc3)nc(N[C@@H]3O[C@H](CO)[C@@H](O)[C@H](O)[C@H]3O)n2)cc1` ? Its cytotoxicity at 24 h, 25 μg/mL was 20.6

So, `CC(=O)OC[C@H]1O[C@@H](Nc2nc(-c3cccnc3)cc(-c3cccc(C)c3)n2)[C@H](OC(C)=O)[C@@H](OC(C)=O)[C@@H]1OC(C)=O` ? Its cytotoxicity at 24 h, 25 μg/mL was 21

So, `CC(=O)OC[C@H]1O[C@@H](Nc2nc(-c3ccc(C)cc3)cc(-c3cccnc3)n2)[C@H](OC(C)=O)[C@@H](OC(C)=O)[C@@H]1OC(C)=O` ? Its cytotoxicity at 24 h, 25 μg/mL was 21.7

###

The following compounds each carry a recorded GI50 for HeLa.
READOUT_TYPE: GI50 (mg/L)

// below: answered compounds
smiles_notation=CC(=O)OC[C@H]1O[C@@H](Nc2nc(-c3ccncc3)cc(-c3ccc(C)cc3)n2)[C@H](OC(C)=O)[C@@H](OC(C)=O)[C@@H]1OC(C)=O system_name=HeLa value_unit=mg/L measured_value=1.03
smiles_notation=CC(=O)OC[C@H]1O[C@@H](Nc2nc(-c3cccc(C)c3)cc(-c3ccccn3)n2)[C@H](OC(C)=O)[C@@H](OC(C)=O)[C@@H]1OC(C)=O system_name=HeLa value_unit=mg/L measured_value=4.48
smiles_notation=Cc1ccccc1-c1cc(-c2ccccn2)nc(N[C@@H]2O[C@H](CO)[C@@H](O)[C@H](O)[C@H]2O)n1 system_name=HeLa value_unit=mg/L measured_value=10.5

a. Cc1ccc(-c2cc(-c3cccnc3)nc(N[C@@H]3O[C@H](CO)[C@@H](O)[C@H](O)[C@H]3O)n2)cc1
b. Cc1cccc(-c2cc(-c3ccccn3)nc(N[C@@H]3O[C@H](CO)[C@@H](O)[C@H](O)[C@H]3O)n2)c1
c. CC(=O)OC[C@H]1O[C@@H](Nc2nc(-c3ccc(C)cc3)cc(-c3ccccn3)n2)[C@H](OC(C)=O)[C@@H](OC(C)=O)[C@@H]1OC(C)=O
Query: Put the compounds in ascending order of GI50. Output spec: a listing of the labels in the requested order.
Response: c, a, b

###

experiment: LDH cytotoxic activity assay, FL; assay type: cell-based; conditions: human, FL cells (normal cells), FL, 50 μg/mL
READOUT_TYPE: cytotoxicity at 24 h, 50 μg/mL (%)
Report as a plain number; the unit % is understood.

// below: answered compounds
compound="Cc1ccc(-c2cc(-c3cccnc3)nc(N[C@@H]3O[C@H](CO)[C@@H](O)[C@H](O)[C@H]3O)n2)cc1 [Compound 8]" value_unit=% measured_value=34.1
compound="Cc1ccc(-c2cc(-c3ccncc3)nc(N[C@@H]3O[C@H](CO)[C@@H](O)[C@H](O)[C@H]3O)n2)cc1 [Compound 9]" value_unit=% measured_value=30
compound="Cc1cccc(-c2cc(-c3cccnc3)nc(N[C@@H]3O[C@H](CO)[C@@H](O)[C@H](O)[C@H]3O)n2)c1 [Compound 5]" value_unit=% measured_value=32.9
compound="Cc1cccc(-c2cc(-c3ccccn3)nc(N[C@@H]3O[C@H](CO)[C@@H](O)[C@H](O)[C@H]3O)n2)c1 [Compound 4]" value_unit=% measured_value=32.4
compound="Cc1ccc(-c2cc(-c3ccccn3)nc(N[C@@H]3O[C@H](CO)[C@@H](O)[C@H](O)[C@H]3O)n2)cc1 [Compound 7]" value_unit=% measured_value=30.5

From here, focus on the item given below.
So, Cc1cccc(-c2cc(-c3ccncc3)nc(N[C@@H]3O[C@H](CO)[C@@H](O)[C@H](O)[C@H]3O)n2)c1 [Compound 6] ? Its cytotoxicity at 24 h, 50 μg/mL was 27.6

###

experiment: LDH cytotoxic activity assay, HT29; format: cell-based; settings: human, HT29 cells, HT29, 25 μg/mL
READOUT_TYPE: cytotoxicity at 24 h, 25 μg/mL (%)
Report as a plain number; the unit % is understood.

compound="CC(=O)OC[C@H]1O[C@@H](Nc2nc(-c3cccnc3)cc(-c3ccccc3C)n2)[C@H](OC(C)=O)[C@@H](OC(C)=O)[C@@H]1OC(C)=O [Compound 11]" readout_type="cytotoxicity at 24 h, 25 μg/mL" measured_value=36.1
compound="Cc1ccc(-c2cc(-c3ccncc3)nc(N[C@@H]3O[C@H](CO)[C@@H](O)[C@H](O)[C@H]3O)n2)cc1 [Compound 9]" readout_type="cytotoxicity at 24 h, 25 μg/mL" measured_value=25.7
compound="Cc1cccc(-c2cc(-c3ccccn3)nc(N[C@@H]3O[C@H](CO)[C@@H](O)[C@H](O)[C@H]3O)n2)c1 [Compound 4]" readout_type="cytotoxicity at 24 h, 25 μg/mL" measured_value=28.2
compound="CC(=O)OC[C@H]1O[C@@H](Nc2nc(-c3ccncc3)cc(-c3ccccc3C)n2)[C@H](OC(C)=O)[C@@H](OC(C)=O)[C@@H]1OC(C)=O [Compound 12]" readout_type="cytotoxicity at 24 h, 25 μg/mL" measured_value=30.7
compound="CC(=O)OC[C@H]1O[C@@H](Nc2nc(-c3cccc(C)c3)cc(-c3ccccn3)n2)[C@H](OC(C)=O)[C@@H](OC(C)=O)[C@@H]1OC(C)=O [Compound 13]" readout_type="cytotoxicity at 24 h, 25 μg/mL" measured_value=31.7

So, Cc1ccc(-c2cc(-c3ccccn3)nc(N[C@@H]3O[C@H](CO)[C@@H](O)[C@H](O)[C@H]3O)n2)cc1 [Compound 7] ? Its cytotoxicity at 24 h, 25 μg/mL was 26

So, Cc1cccc(-c2cc(-c3ccncc3)nc(N[C@@H]3O[C@H](CO)[C@@H](O)[C@H](O)[C@H]3O)n2)c1 [Compound 6] ? Its cytotoxicity at 24 h, 25 μg/mL was 24.8

So, CC(=O)OC[C@H]1O[C@@H](Nc2nc(-c3ccncc3)cc(-c3cccc(C)c3)n2)[C@H](OC(C)=O)[C@@H](OC(C)=O)[C@@H]1OC(C)=O [Compound 15] ? Its cytotoxicity at 24 h, 25 μg/mL was 23.8

So, CC(=O)OC[C@H]1O[C@@H](Nc2nc(-c3ccncc3)cc(-c3ccc(C)cc3)n2)[C@H](OC(C)=O)[C@@H](OC(C)=O)[C@@H]1OC(C)=O [Compound 18] ? Its cytotoxicity at 24 h, 25 μg/mL was 27.9

So, Cc1ccccc1-c1cc(-c2ccccn2)nc(N[C@@H]2O[C@H](CO)[C@@H](O)[C@H](O)[C@H]2O)n1 [Compound 1] ? Its cytotoxicity at 24 h, 25 μg/mL was 29.3

So, CC(=O)OC[C@H]1O[C@@H](Nc2nc(-c3ccc(C)cc3)cc(-c3ccccn3)n2)[C@H](OC(C)=O)[C@@H](OC(C)=O)[C@@H]1OC(C)=O [Compound 16] ? Its cytotoxicity at 24 h, 25 μg/mL was 26.4

So, Cc1cccc(-c2cc(-c3cccnc3)nc(N[C@@H]3O[C@H](CO)[C@@H](O)[C@H](O)[C@H]3O)n2)c1 [Compound 5] ? Its cytotoxicity at 24 h, 25 μg/mL was 24.6

So, O=c1[nH]cc(F)c(=O)[nH]1 [Compound 5FU, 5-fluorouracil, reference compound] ? Its cytotoxicity at 24 h, 25 μg/mL was 7.91
